- TARGET_OR_SYSTEM: 5-hydroxytryptamine receptor 4 (Cavia porcellus) (UniProt O70528)
- Sequence (O70528 whole entry): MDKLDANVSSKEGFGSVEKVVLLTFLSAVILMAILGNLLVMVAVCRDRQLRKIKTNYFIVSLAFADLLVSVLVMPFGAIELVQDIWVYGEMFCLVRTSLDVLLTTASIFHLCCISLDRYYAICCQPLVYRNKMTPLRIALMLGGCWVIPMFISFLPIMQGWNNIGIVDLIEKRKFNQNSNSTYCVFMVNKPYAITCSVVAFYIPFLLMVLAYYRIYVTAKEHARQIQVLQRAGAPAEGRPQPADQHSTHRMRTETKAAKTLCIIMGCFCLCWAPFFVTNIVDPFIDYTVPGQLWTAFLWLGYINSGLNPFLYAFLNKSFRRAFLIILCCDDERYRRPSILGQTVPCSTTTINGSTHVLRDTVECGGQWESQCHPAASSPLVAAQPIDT
- EXPERIMENT_SUMMARY: 5-hydroxytryptamine 4 receptor agonist activity as percent maximum 5-HT effect in response to electrical stimulation in male guinea pig ileum
- Type: functional, tissue-based
REPORTED_PROPERTY: Activity (%)
Numbers only, in %.

# annotated cases, reported Activity shown
COMPOUND: COc1cc(N)c(Cl)cc1C(=O)OC1CCN(C)CC1
TARGET_OR_SYSTEM: 5-hydroxytryptamine receptor 4 (Cavia porcellus) (UniProt O70528)
UNIT_TEXT: %
Activity: 53
//
COMPOUND: NCCc1c[nH]c2ccc(O)cc12
TARGET_OR_SYSTEM: 5-hydroxytryptamine receptor 4 (Cavia porcellus) (UniProt O70528)
UNIT_TEXT: %
Activity: 100
//
COMPOUND: COc1cc(N)c(Cl)cc1C(=O)OC1CC2CCC(C1)N2C (stereo unspecified)
TARGET_OR_SYSTEM: 5-hydroxytryptamine receptor 4 (Cavia porcellus) (UniProt O70528)
UNIT_TEXT: %
Activity: 54
//
COMPOUND: CCN1CCC(OC(=O)c2cc(Cl)c(N)cc2OC)CC1
TARGET_OR_SYSTEM: 5-hydroxytryptamine receptor 4 (Cavia porcellus) (UniProt O70528)
UNIT_TEXT: %
Activity: 60
//
COMPOUND: COc1cc(N)c(Cl)cc1C(=O)OCCN1CCCCC1
TARGET_OR_SYSTEM: 5-hydroxytryptamine receptor 4 (Cavia porcellus) (UniProt O70528)
UNIT_TEXT: %
Activity: 80

As a next step, examine the compound that follows.
Quick one: Activity for CCN1CCCC(OC(=O)c2cc(Cl)c(N)cc2OC)C1 (stereo unspecified) ? 79

---

5-hydroxytryptamine receptor 4 (Rattus norvegicus): recorded Ki for assorted compounds
Sequence (Q62758 whole entry): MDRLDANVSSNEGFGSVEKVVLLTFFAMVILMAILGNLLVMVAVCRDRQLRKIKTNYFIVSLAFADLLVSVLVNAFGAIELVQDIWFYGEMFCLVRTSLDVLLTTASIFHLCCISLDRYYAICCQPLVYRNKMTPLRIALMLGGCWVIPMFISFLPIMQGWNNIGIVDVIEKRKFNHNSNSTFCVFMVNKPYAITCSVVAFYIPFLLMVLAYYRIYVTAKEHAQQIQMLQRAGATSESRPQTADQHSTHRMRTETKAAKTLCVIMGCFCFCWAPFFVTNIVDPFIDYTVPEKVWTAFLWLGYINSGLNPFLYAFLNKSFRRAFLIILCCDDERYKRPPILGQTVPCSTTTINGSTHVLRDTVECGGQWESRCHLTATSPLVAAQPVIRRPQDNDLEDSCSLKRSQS
Numbers only, in nM.

COMPOUND: CCN(CC)CCOC(=O)c1cc(Cl)c(N)cc1OC
Ki / nM: 5.3
//
COMPOUND: COc1cc(N)c(Cl)cc1C(=O)NC1CN2CCC1CC2 (configuration not stated) [ZACOPRIDE]
Ki / nM: 753
//
COMPOUND: CCN1CCC(OC(=O)c2cc(Cl)c(N)cc2OC)CC1
Ki / nM: 10.3
//
COMPOUND: COc1cc(N)c(Cl)cc1C(=O)OCCN1CCCCC1
Ki / nM: 1.07
//
COMPOUND: COc1cc(N)c(Cl)cc1C(=O)OC1CC2CCC(C1)N2C (configuration not stated)
Ki / nM: 64.3
//
COMPOUND: COc1cc(N)c(Cl)cc1C(=O)OC1CCN(C)CC1
Ki / nM: 23

As a next step, examine the compound that follows.
Quick one: Ki for CCN1CCCC(OC(=O)c2cc(Cl)c(N)cc2OC)C1 (configuration not stated) ? 34.5

---

- TARGET_OR_SYSTEM: Serotonin 3 (5-HT3) receptor (Rattus norvegicus, UniProt P35563+Q9JJ16)
- Sequence (P35563 whole entry): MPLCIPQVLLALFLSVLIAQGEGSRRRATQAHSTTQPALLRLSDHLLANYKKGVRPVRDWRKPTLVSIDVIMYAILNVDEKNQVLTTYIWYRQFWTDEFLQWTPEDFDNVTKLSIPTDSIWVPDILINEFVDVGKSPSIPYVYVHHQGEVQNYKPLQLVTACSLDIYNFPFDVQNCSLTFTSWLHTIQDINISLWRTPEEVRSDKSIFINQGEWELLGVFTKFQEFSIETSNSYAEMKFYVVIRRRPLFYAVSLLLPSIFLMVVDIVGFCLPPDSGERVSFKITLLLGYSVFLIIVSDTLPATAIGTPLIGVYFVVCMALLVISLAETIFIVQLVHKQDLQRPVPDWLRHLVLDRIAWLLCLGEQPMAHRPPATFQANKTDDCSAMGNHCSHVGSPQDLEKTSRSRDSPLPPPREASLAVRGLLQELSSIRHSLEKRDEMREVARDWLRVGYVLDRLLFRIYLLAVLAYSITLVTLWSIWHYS
- Sequence (Q9JJ16 whole entry): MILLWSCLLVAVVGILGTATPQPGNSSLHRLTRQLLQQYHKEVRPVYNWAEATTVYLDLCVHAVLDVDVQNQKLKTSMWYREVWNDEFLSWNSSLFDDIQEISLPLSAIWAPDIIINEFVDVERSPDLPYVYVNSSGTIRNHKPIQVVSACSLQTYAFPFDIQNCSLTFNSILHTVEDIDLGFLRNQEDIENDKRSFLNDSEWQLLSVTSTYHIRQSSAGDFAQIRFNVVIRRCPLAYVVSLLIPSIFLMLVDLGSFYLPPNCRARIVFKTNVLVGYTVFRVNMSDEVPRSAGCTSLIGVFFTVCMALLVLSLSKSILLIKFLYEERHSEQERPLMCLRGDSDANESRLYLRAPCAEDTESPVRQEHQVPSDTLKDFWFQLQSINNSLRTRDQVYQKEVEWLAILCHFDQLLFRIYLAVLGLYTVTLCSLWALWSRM
- EXPERIMENT_SUMMARY: Binding affinity against 5-hydroxytryptamine 3 receptor using [3H]BRL-43694 in rat posterior cortex
Would you kindly list Ki for each of these compounds?
One number for each entry, in µM.

COMPOUND: COc1cc(N)c(Cl)cc1C(=O)NC1CN2CCC1CC2 (configuration not stated) [ZACOPRIDE]
TARGET_OR_SYSTEM: Serotonin 3 (5-HT3) receptor (Rattus norvegicus, UniProt P35563+Q9JJ16)
VAL: 0.0007

Please supply Ki for each of the following items, keeping them in order.
1. COc1cc(N)c(Cl)cc1C(=O)OCCN1CCCCC1
2. CCN1CCC(OC(=O)c2cc(Cl)c(N)cc2OC)CC1
3. COc1cc(N)c(Cl)cc1C(=O)OC1CCN(C)CC1
4. CCN(CC)CCNC(=O)c1cc(Cl)c(N)cc1OC [METOCLOPRAMIDE]

0.782
0.118
0.072
0.443

Please supply Ki for each of the following items, keeping them in order.
1. CCN(CC)CCOC(=O)c1cc(Cl)c(N)cc1OC
2. COc1cc(N)c(Cl)cc1C(=O)OC1CC2CCC(C1)N2C (configuration not stated)

1: 0.205; 2: 0.0032
